Biological target: Carbonic anhydrase 12 (Homo sapiens)
Sequence (O43570 whole entry): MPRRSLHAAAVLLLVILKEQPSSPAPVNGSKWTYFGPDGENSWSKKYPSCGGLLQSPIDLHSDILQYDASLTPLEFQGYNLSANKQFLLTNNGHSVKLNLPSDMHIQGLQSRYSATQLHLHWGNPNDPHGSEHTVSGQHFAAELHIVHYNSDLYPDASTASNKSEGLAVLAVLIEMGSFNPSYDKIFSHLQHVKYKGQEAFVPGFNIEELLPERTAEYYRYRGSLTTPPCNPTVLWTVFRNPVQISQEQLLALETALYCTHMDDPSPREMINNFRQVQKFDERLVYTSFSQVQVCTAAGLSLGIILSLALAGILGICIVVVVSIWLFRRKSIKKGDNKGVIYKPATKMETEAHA
Assay: Inhibition of transmembrane tumor-associated human carbonic anhydrase 12 preincubated for 15 mins by stopped flow CO2 hydration assay
pKi: −log10 of the molar value.
measured_endpoint: pKi

INSERT INTO measurements (molecule, measured_endpoint, assay_result) VALUES
  ('Nc1oc2ccc(Cl)cc2c(=O)c1-c1ccc(Cl)cc1', 'pKi', 5.03),
  ('O=c1c(O)c(-c2ccccc2)oc2ccccc12 [FLAVONOL]', 'pKi', 5.18),
  ('COc1ccc(-c2c(N)oc3ccc(Cl)cc3c2=O)cc1', 'pKi', 5.19),
  ('Oc1ccc(C=Cc2cc(O)cc(O)c2)cc1 (mixture of isomers)', 'pKi', 5.09),
  ('O=c1cc(-c2ccccc2)oc2cc(O)cc(O)c12 [CHRYSIN]', 'pKi', 5.05),
  ('O=c1cc(-c2ccccc2)oc2cc(O)ccc12 [7-HYDROXYFLAVONE]', 'pKi', 5.08),
  ('O=c1cc(-c2ccccc2)oc2ccccc12 [FLAVONE]', 'pKi', 5.14);

----------
Molecular target: Carbonic anhydrase 1 (Homo sapiens, UniProt P00915)
Sequence (P00915 whole entry): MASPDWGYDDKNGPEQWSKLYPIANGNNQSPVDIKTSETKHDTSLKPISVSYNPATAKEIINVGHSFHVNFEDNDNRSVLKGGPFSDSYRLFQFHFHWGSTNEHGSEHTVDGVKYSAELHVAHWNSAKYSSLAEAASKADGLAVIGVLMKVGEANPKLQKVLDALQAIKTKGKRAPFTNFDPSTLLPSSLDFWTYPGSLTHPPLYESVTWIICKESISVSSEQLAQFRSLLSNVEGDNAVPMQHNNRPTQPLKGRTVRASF
Assay: Inhibition of cytosolic human carbonic anhydrase 1 preincubated for 12 hrs by stopped flow CO2 hydration assay
pKi: −log10 of the molar value.
measured_endpoint: pKi

INSERT INTO results (compound, measurement_target, assay_result) VALUES
  ('O=c1cc(-c2ccccc2)oc2cc(O)ccc12 [7-HYDROXYFLAVONE]', 'Carbonic anhydrase 1 (Homo sapiens, UniProt P00915)', 5.46),
  ('O=c1cc(-c2ccccc2)oc2ccccc12', 'Carbonic anhydrase 1 (Homo sapiens, UniProt P00915)', 5.73),
  ('O=c1c(O)c(-c2ccccc2)oc2ccccc12', 'Carbonic anhydrase 1 (Homo sapiens, UniProt P00915)', 5.29),
  ('O=c1cc(-c2ccccc2)oc2cc(O)cc(O)c12', 'Carbonic anhydrase 1 (Homo sapiens, UniProt P00915)', 5.27);

----------
Each record here notes measured pKi.
Molecular target: Carbonic anhydrase 2 (Homo sapiens, UniProt P00918)
Experiment: Inhibition of cytosolic human carbonic anhydrase 2 preincubated for 12 hrs by stopped flow CO2 hydration assay
pKi: −log10 of the molar value.
measured_endpoint: pKi

INSERT INTO measurements (molecule, assay_result) VALUES
  ('O=c1cc(-c2ccccc2)oc2ccccc12 [FLAVONE]', 5.06),
  ('O=c1c(O)c(-c2ccccc2)oc2ccccc12 [FLAVONOL]', 5.04),
  ('O=c1cc(-c2ccccc2)oc2cc(O)ccc12 [7-HYDROXYFLAVONE]', 5.63),
  ('O=c1cc(-c2ccccc2)oc2cc(O)cc(O)c12 [CHRYSIN]', 5.37);

----------
Molecular target: Carbonic anhydrase 1 (Homo sapiens)
Test: Inhibition of cytosolic human carbonic anhydrase 1 preincubated for 15 mins by stopped flow CO2 hydration assay
Here the recorded Ki is given for each entry.
measured_endpoint: Ki (µM)

INSERT INTO measurements (molecule, unit_abbreviation, assay_result) VALUES
  ('O=c1c(O)c(-c2ccccc2)oc2ccccc12', 'µM', 5.21),
  ('O=c1cc(-c2ccccc2)oc2ccccc12', 'µM', 1.89),
  ('O=c1cc(-c2ccccc2)oc2cc(O)ccc12 [7-HYDROXYFLAVONE]', 'µM', 3.37),
  ('O=c1cc(-c2ccccc2)oc2cc(O)cc(O)c12', 'µM', 5.49);
